# Tested on: L1210
# method: Antitumor activity against mouse L1210 cells allografted in mouse assessed as mouse survival after 30 days at 8 mg/kg, ip single dose relative to control
# Type: functional, organism-based
# Design: dose 8 mg/kg
Active and inactive are the calls of the source. No cut-off for these calls is given here.
readout type: Survival

O=NN(CCCl)C(=O)N[C@H]1[C@@H](O)[C@@H](O)[C@H](NC(=O)N(CCCl)N=O)[C@H](O)[C@@H]1O | inactive
O=NN(CCCl)C(=O)N[C@H]1[C@@H](O)[C@@H](O)[C@H](NC(=O)N(CCCl)N=O)[C@@H](O)[C@@H]1O | inactive
O=NN(CCCl)C(=O)NCCCl | inactive
O=NN(CCCl)C(=O)N[C@@H]1[C@H](O)[C@H](NC(=O)N(CCCl)N=O)[C@@H](O)[C@H](O)[C@H]1O | inactive
